Just for reference, patent US9290451B2 is where these values come from.

target: human CB1 receptors (Homo sapiens (Human), UniProt P21554); test: cAMP assay, CHO cells expressing human CB1 receptors; format: cell-based; conditions: CHO cells expressing human CB1, cAMP; read-out: human CB1 EC50
Sequence (P21554 whole entry): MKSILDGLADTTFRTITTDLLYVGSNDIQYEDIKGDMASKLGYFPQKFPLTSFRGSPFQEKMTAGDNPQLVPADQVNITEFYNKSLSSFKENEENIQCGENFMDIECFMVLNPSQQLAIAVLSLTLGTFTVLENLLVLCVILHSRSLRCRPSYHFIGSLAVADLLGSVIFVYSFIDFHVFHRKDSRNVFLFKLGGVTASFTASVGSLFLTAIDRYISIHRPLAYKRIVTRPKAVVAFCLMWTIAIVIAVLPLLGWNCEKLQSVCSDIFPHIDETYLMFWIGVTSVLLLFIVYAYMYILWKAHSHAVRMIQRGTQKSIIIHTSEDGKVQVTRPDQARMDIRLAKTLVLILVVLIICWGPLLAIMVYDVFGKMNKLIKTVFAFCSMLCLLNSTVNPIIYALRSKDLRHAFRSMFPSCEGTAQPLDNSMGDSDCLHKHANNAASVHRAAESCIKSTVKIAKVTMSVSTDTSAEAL
readoutLabel: EC50

Give human CB1 receptors (Homo sapiens (Human), UniProt P21554) EC50 for `CCC(CC)(NC(=O)c1ccc(N2CC(F)(F)C2=O)c(OCC2CC2)n1)C(=O)OC`
> 10 µM

Give human CB1 receptors (Homo sapiens (Human), UniProt P21554) EC50 for `CCC(CC)(NC(=O)c1cccc(-c2cccc(Cl)c2)n1)C(=O)N(C)C`
> 10 µM

Give human CB1 receptors (Homo sapiens (Human), UniProt P21554) EC50 for `O=C(c1ccc(N2CCCC2)c(OCC2CC2)n1)N1CCSCC1`
> 10 µM

Give human CB1 receptors (Homo sapiens (Human), UniProt P21554) EC50 for `CN(C)C(=O)[C@H](CC1CC1)NC(=O)c1ccc(N2CC(F)(F)C2)c(OCC2CC2)n1`
> 10 µM

Give human CB1 receptors (Homo sapiens (Human), UniProt P21554) EC50 for `CNC(=O)[C@H](CC(C)(C)C)NC(=O)c1ccc(C2CC2)c(OCC(F)(F)C(F)(F)F)n1`
0.603 µM

Give human CB1 receptors (Homo sapiens (Human), UniProt P21554) EC50 for CC(C)C(C)(NC(=O)c1ccc(C2CC2)c(OCC2CC2)n1)C(N)=O (stereo not shown)
> 10 µM

Give human CB1 receptors (Homo sapiens (Human), UniProt P21554) EC50 for `COc1ccc(C(=O)NC(C)(C)c2noc(C)n2)nc1-c1cccc(Cl)c1`
1.36 µM

Give human CB1 receptors (Homo sapiens (Human), UniProt P21554) EC50 for `CCC(CC)(NC(=O)c1ccc(C2CC2)c(OCC[C@@H](O)C(F)(F)F)n1)C(=O)NC`
1.26 µM

Give human CB1 receptors (Homo sapiens (Human), UniProt P21554) EC50 for `CC(C)[C@@](C)(CO)NC(=O)c1ccc(C2CC2)c(OCC2CC2)n1`
> 10 µM

Give human CB1 receptors (Homo sapiens (Human), UniProt P21554) EC50 for CC(C)CC(NC(=O)c1ccc(N2CC(F)(F)C2)c(OCC2CC2)n1)c1ncccn1 (stereo not shown)
> 10 µM

Give human CB1 receptors (Homo sapiens (Human), UniProt P21554) EC50 for `NC(=O)[C@H](NC(=O)c1ccc(N2CC(F)(F)C2)c(OCC2CC2)n1)C1CC1`
> 10 µM

Give human CB1 receptors (Homo sapiens (Human), UniProt P21554) EC50 for `CNC(=O)[C@@H](NC(=O)c1cccc(-c2ccccc2)n1)C(C)(C)C`
0.737 µM

Give human CB1 receptors (Homo sapiens (Human), UniProt P21554) EC50 for `CNC(=O)[C@H](CC(C)(C)C)NC(=O)c1cccc(-c2cccc(Cl)c2)n1`
> 10 µM

Give human CB1 receptors (Homo sapiens (Human), UniProt P21554) EC50 for `O=C(NN1CCCCC1)c1cccc(C2CCCC2)n1`
> 10 µM

Give human CB1 receptors (Homo sapiens (Human), UniProt P21554) EC50 for `NC(=O)[C@@H](NC(=O)c1ccc(C2CC2)c(OCC2CC2)n1)c1ccc(Cl)cc1`
> 10 µM

Give human CB1 receptors (Homo sapiens (Human), UniProt P21554) EC50 for `CNC(=O)[C@H](CC(C)(C)C)NC(=O)c1ccc(C2CC2)c(OCC2CC2)n1`
> 10 µM

Give human CB1 receptors (Homo sapiens (Human), UniProt P21554) EC50 for `Cc1ccc(C(=O)NC(C)(C)c2ncco2)nc1-c1cccc(Cl)c1`
> 10 µM

Give human CB1 receptors (Homo sapiens (Human), UniProt P21554) EC50 for `O=C(N[C@@H](c1ccccn1)C(F)(F)F)c1ccc(C2CC2)c(Cc2ccc(F)cc2)n1`
0.091 µM

Give human CB1 receptors (Homo sapiens (Human), UniProt P21554) EC50 for `CCOC(=O)C(CC)(CC)NC(=O)c1ccc(N2CCCC2)c(OCC2CC2)n1`
0.234 µM

Give human CB1 receptors (Homo sapiens (Human), UniProt P21554) EC50 for `Cc1nc([C@H](CC2CC2)NC(=O)c2cccc(-c3ccc(F)c(C(F)(F)F)c3)n2)no1`
> 10 µM

Give human CB1 receptors (Homo sapiens (Human), UniProt P21554) EC50 for `CC(C)(NC(=O)c1ccc(N2CCCC2)c(OCC2CC2)n1)C1=NCCO1`
> 10 µM

Give human CB1 receptors (Homo sapiens (Human), UniProt P21554) EC50 for `O=C(N[C@@H](c1cccnc1)C(F)(F)F)c1ccc(C2CC2)c(OCC2CC2)n1`
> 10 µM

Give human CB1 receptors (Homo sapiens (Human), UniProt P21554) EC50 for CC(C)(C)C(NC(=O)c1ccc(C2CC2)c(OCC(F)(F)F)n1)c1nccs1 (stereo not shown)
> 10 µM

Give human CB1 receptors (Homo sapiens (Human), UniProt P21554) EC50 for `NC(=O)[C@H](CC1CC1)NC(=O)c1ccc(C(F)(F)F)c(OCC2CC2)n1`
> 10 µM

Give human CB1 receptors (Homo sapiens (Human), UniProt P21554) EC50 for `COCCOc1nc(C(=O)N[C@@H](CC2CC2)C(N)=O)ccc1C1CC1`
> 10 µM

Give human CB1 receptors (Homo sapiens (Human), UniProt P21554) EC50 for CCC(CC)(NC(=O)c1ccc(C2CC2)c(OCC2CCCO2)n1)C(=O)NC (stereo not shown)
> 10 µM

Give human CB1 receptors (Homo sapiens (Human), UniProt P21554) EC50 for `Cc1nc([C@H](CC2CC2)NC(=O)c2cccc(-c3cccc(F)c3)n2)no1`
> 10 µM

Give human CB1 receptors (Homo sapiens (Human), UniProt P21554) EC50 for `CNC(=O)C(C)(C)NC(=O)c1ccc(C2CCCC2)c(OCC2CC2)n1`
> 10 µM

Give human CB1 receptors (Homo sapiens (Human), UniProt P21554) EC50 for `CCOC(=O)C(CC)(CC)NC(=O)c1ccc(C(F)(F)F)c(OCC2CC2)n1`
> 10 µM

Give human CB1 receptors (Homo sapiens (Human), UniProt P21554) EC50 for `CC(C)(NC(=O)c1ccc(C(F)(F)F)c(OCC2CC2)n1)c1ncon1`
> 10 µM

Give human CB1 receptors (Homo sapiens (Human), UniProt P21554) EC50 for `Cc1nc([C@@](C)(NC(=O)c2ccc(C3CC3)c(OCC3CC3)n2)C2CC2)no1`
0.181 µM

Give human CB1 receptors (Homo sapiens (Human), UniProt P21554) EC50 for `CC(C)(NC(=O)c1ccc(C2CC2)c(OCC2CC2)n1)c1nc(N)no1`
> 10 µM

Give human CB1 receptors (Homo sapiens (Human), UniProt P21554) EC50 for Cc1nc(C(C)(C)NC(=O)c2ccc(C3CC3)c(OC(C)C(F)(F)F)n2)no1 (stereo not shown)
> 10 µM

Give human CB1 receptors (Homo sapiens (Human), UniProt P21554) EC50 for `O=C(N[C@@H](c1ccccn1)C(F)(F)F)c1ccc(C2CC2)c(OCC2CC2)n1`
> 10 µM

----------
biological target: human CB2 receptors (Homo sapiens (Human), UniProt P34972); assay: cAMP assay, CHO cells expressing human CB2 receptors; assay type: cell-based; conditions: CHO cells expressing human CB2, cAMP; read-out: human CB2 EC50
Sequence (P34972 whole entry): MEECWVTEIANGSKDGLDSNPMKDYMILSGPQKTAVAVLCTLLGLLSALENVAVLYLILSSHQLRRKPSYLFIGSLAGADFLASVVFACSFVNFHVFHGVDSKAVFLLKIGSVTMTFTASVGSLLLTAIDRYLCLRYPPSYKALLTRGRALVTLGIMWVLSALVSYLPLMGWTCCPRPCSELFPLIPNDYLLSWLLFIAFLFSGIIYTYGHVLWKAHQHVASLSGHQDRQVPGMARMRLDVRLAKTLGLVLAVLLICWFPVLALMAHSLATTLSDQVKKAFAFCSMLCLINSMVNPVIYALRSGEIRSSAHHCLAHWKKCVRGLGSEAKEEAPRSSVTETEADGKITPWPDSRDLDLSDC
For each of the molecules below, state its EC50.
Give the value; after it, write the unit.

Fill blank: measured EC50 of the molecule `CCC(CC)(NC(=O)c1ccc(OC)c(-c2cccc(Cl)c2)n1)C(=O)NC` is ____.
417 nM

Fill blank: measured EC50 of the molecule `CC(C)C[C@H](NC(=O)c1ccc(N2CC(F)(F)C2)c(-c2cccc(Cl)c2)n1)C(N)=O` is ____.
305 nM

Fill blank: measured EC50 of the molecule CC(C)C[C@H](NC(=O)c1ccc(C2CC2)c(OCC2CCCO2)n1)C(N)=O (stereo partly shown) is ____.
1.1 nM

Fill blank: measured EC50 of the molecule `Cc1nc(C(C)(C)NC(=O)c2ccc(Cl)c(OCC3CC3)n2)no1` is ____.
190 nM

----------
target: human CB2 receptors (Homo sapiens (Human)); assay: cAMP assay, CHO cells expressing human CB2 receptors; format: cell-based
For each of the molecules below, state its EC50.
Give the value in µM but do not write µM after it.

Fill blank: measured EC50 of the molecule `CC(C)(NC(=O)c1ccc(C2CC2)c(-c2cccc(Cl)c2)n1)c1nccs1` is ____.
0.0859

Fill blank: measured EC50 of the molecule CC(C)C[C@H](NC(=O)c1ccc(C2CC2)c(OC(C)C(F)(F)F)n1)C(N)=O (stereo partly drawn) is ____.
0.0534

Fill blank: measured EC50 of the molecule O=C(N[C@@H](CC1CC1)C(=O)NN1CCC(O)C1)c1ccc(C2CC2)c(OCC2CC2)n1 (single isomer, unassigned; (+)) is ____.
0.0264

Fill blank: measured EC50 of the molecule Cc1nc(C(CC(C)C)NC(=O)c2ccc(N3CC(F)(F)C3)c(OCC3CC3)n2)no1 (stereo not drawn) is ____.
0.0043

Fill blank: measured EC50 of the molecule CC(C)CC(C)(CO)NC(=O)c1ccc(N2CC(F)(F)C2)c(OCC2CC2)n1 (stereo not drawn) is ____.
0.0054

Fill blank: measured EC50 of the molecule `CNC(=O)[C@@H](NC(=O)c1ccc(C2CC2)c(S(=O)(=O)CC(C)C)n1)C(C)(C)C` is ____.
0.0129
